protocol-text: chemical genetic growth profiling, strain panel (AID 1159580);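 note: tested at 20 µM; growth read once vehicle control cultures reached saturation at 30 °C; 1 = growth at the plate median or of vehicle wells; lower values mean less growth of the strain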
experimental-setup: S. cerevisiae deletion strains, growth OD, locus YKL160W, strain elf1, active compounds read low
About 2,000 (36%) of roughly 5,500 compounds were called active. About 18% were inconclusive and are not listed. This is one part of the list.
Attribute: normalized growth
API note: the answer field is a bare number with no unit suffix.

See these solved cases before continuing.
* CCOC(=O)C(=O)C1(C(=O)OCC)Oc2cc(OC)cc(OC)c2C(=O)C1c1ccccc1 (stereo unspecified) | 0.966
* C=Cc1c2[nH]c(c1C)C=c1[nH]c(c(C)c1C=C)=CC1N=C(C=c3[nH]c(c(C)c3CCC(=O)O)=C2)C(CCC(=O)O)=C1C (stereo unspecified) | 0.963
* COc1ccc2cc([C@H](C)CO)ccc2c1 | 1
* COc1cc2c(cc1OC)C(=O)OC2 | 0.994
* COc1cc2c(cc1OC)Cc1cc(OC)c(OC)cc1Cc1cc(OC)c(OC)cc1C2 | 1.02

Then this molecule:
Read the entry COc1ccc(OC)c(C(O)C(C)N)c1 (stereo unspecified) and write its reported normalized growth.
0.983

###

protocol-text: chemical genetic growth profiling, strain panel (AID 1159580)
experimental-setup: S. cerevisiae deletion strains, growth OD, locus YNL209W, strain ssb2
The campaign covered roughly 5,500 compounds. About 2,000 (36%) were called active. Inconclusive results (about 18%) are left out. Cut-off read from the data, not from the text of the source: active = normalized growth mostly below about 0.91 (no sharp cut-off); inconclusive = no clear call, values can overlap the other calls; inactive = mostly above about 0.92. The list shows a part of the results.
Allowed answers: true (1) = active, false (0) = inactive

Recorded results for 4 compounds are shown here.
• CN(C)c1ccc(C(=C2C=CC(=[N+](C)C)C=C2)c2ccc(N(C)C)cc2)cc1 = true (1)
• CC(Oc1ccccc1)C(=O)N[C@@H]1C(=O)N2[C@@H]1SC(C)(C)[C@@H]2C(=O)O (stereo not given in full) = false (0)
• NCCSSCCN = false (0)
• CC1=C(/C=C/C(C)=C/C=C/C(C)=C/C=C/C=C(C)/C=C/C=C(C)/C=C/C(=O)[C@]2(C)C[C@@H](O)CC2(C)C)C(C)(C)C[C@H](O)C1 = false (0)

Please indicate how the test categorized CC(N)C(=O)OC(C)(C)Cc1ccc(Cl)cc1 (stereo not given) .
false (0)

Please indicate how the test categorized O=C(O)C1(O)C[C@@H](O)C(O)[C@H](O)C1 (stereo not given in full) .
false (0)

Please indicate how the test categorized CCOC(=O)C(=O)C1(C(=O)OCC)Oc2cc(OC)cc(OC)c2C(=O)C1c1ccccc1 (stereo not given) .
false (0)

Please indicate how the test categorized CN1CCCN=C1COC(=O)C(O)(c1ccccc1)C1CCCCC1 (stereo not given) .
false (0)

Please indicate how the test categorized OCCN1C[C@@H](O)[C@@H](O)C(O)C1CO (stereo not given in full) .
false (0)

Please indicate how the test categorized CC1=C(/C=C/C(C)=C/C=C/C(C)=C/C=C/C=C(C)/C=C/C=C(C)/C=C/C2=C(C)C(=O)C(O)CC2(C)C)C(C)(C)CC(O)C1=O (stereo not given) .
false (0)

###

protocol-text: chemical genetic growth profiling, strain panel (AID 1159580)
experimental-setup: S. cerevisiae deletion strains, growth OD, locus YLL041C, strain sdh2
Out of some 5,500 compounds screened, about 2,000 (36%) were called active. Not shown: some 18% with an inconclusive outcome. No stated cut-off is given here; in the data, active means normalized growth mostly below about 0.91 (no sharp cut-off); inconclusive means no clear call, values can overlap the other calls; inactive means mostly above about 0.92. This is one part of the list.
Allowed answers: true (1) = active, false (0) = inactive

- NCC1CCC(C(=O)O)CC1 (stereo not given): false (0)
- CN(C)C(=S)SSC(=S)N(C)C: true (1)

Please indicate how the test categorized COc1cc2c(cc1OC)[C@@H]1C(=O)c3ccc4c(c3O[C@@H]1CO2)C=CC(C)(C)O4 .
false (0)

Please indicate how the test categorized COc1cc2c(cc1OC)Cc1cc(OC)c(OC)cc1Cc1cc(OC)c(OC)cc1C2 .
false (0)

Please indicate how the test categorized C=C(C)C1CNC(C(=O)O)C1CC(=O)O (stereo not given) .
false (0)

###

protocol-text: chemical genetic growth profiling, strain panel (AID 1159580)
experimental-setup: S. cerevisiae deletion strains, growth OD, locus YNL183C, strain NPR1
Out of some 5,500 compounds screened, about 2,000 (36%) were called active. Inconclusive results (about 18%) are left out. Cut-off read from the data, not from the text of the source: active = normalized growth mostly below about 0.91 (no sharp cut-off); inconclusive = no clear call, values can overlap the other calls; inactive = mostly above about 0.92. The list shows a part of the results.
Allowed answers: active, inactive

Recorded results for 3 molecules are shown here.
- Cc1nnsc1C(=O)NNc1ccc(F)cc1F: inactive
- OCCN1C[C@@H](O)[C@@H](O)C(O)C1CO (stereo partly drawn): inactive
- COc1cc(NS(=O)(=O)c2ccc(N)cc2)nc(OC)n1: inactive

Please indicate how the test categorized Cc1cc(NNC(=O)c2ccccc2Cl)nc2c1c(C)nn2C .
inactive

Please indicate how the test categorized COCCc1ccc(OCC(O)CNC(C)C)cc1 (stereo not drawn) .
inactive

Please indicate how the test categorized O=C(NNc1ccccc1F)c1ccno1 .
inactive

###

Attribute: normalized growth
protocol-text: chemical genetic growth profiling, strain panel (AID 1159580);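 note: tested at 20 µM; growth read once vehicle control cultures reached saturation at 30 °C; 1 = growth at the plate median or of vehicle wells; lower values mean less growth of the strain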
experimental-setup: S. cerevisiae deletion strains, growth OD, locus YJL168C, strain set2, active compounds read low
About 2,000 (36%) of roughly 5,500 compounds were called active. Another 18% or so got no clear call; they are omitted. Some of the results follow.
API note: the answer field is a bare number with no unit suffix.

See these solved cases before continuing.
• CC(=O)OC(C)(C)[C@@H]1Cc2cc3ccc(=O)oc3cc2O1 = 1
• NCC1CCC(C(=O)O)CC1 (configuration not stated) = 0.999
• CCOC(=O)C(C)(C)Oc1ccc(Cl)cc1 = 0.997
• ClC1=C(Cl)C2(Cl)C3C(Cl)C=CC3C1(Cl)C2(Cl)Cl (configuration not stated) = 0.977
• CC(N)C(=O)OC(C)(C)Cc1ccc(Cl)cc1 (configuration not stated) = 0.989
• ClC1=C(Cl)C2(Cl)C3C4C=CC(C4)C3C1(Cl)C2(Cl)Cl (configuration not stated) = 0.991

Read the entry CC(C)(OC(=O)c1ccccc1)[C@@H]1Cc2cc3ccc(=O)oc3cc2O1 and write its reported normalized growth.
0.983

###

Attribute: normalized growth
protocol-text: chemical genetic growth profiling, strain panel (AID 1159580);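 note: tested at 20 µM; growth read once vehicle control cultures reached saturation at 30 °C; 1 = growth at the plate median or of vehicle wells; lower values mean less growth of the strain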
experimental-setup: S. cerevisiae deletion strains, growth OD, locus YFR003C, strain YPI1, active compounds read low
The campaign covered roughly 5,500 compounds. About 2,000 (36%) were called active. About 18% were inconclusive and are not listed. The list shows a part of the results.
API note: the answer field is a bare number with no unit suffix.

See these solved cases before continuing.
• COc1cc(NC(=S)NNS(=O)(=O)c2ccc(C)cc2)c(OC)cc1Cl = 0.985
• Cc1cc(C(=O)Nc2ccc(Cl)cc2)nn1C(C)(C)C = 1
• CCOC(=O)CSC(=S)NCc1ccc(C)cc1 = 0.957
• OC1(C(F)(F)F)CC(C23CC4CC(CC(C4)C2)C3)=NN1 (centres undefined) = 0.905

Read the entry O=C(Oc1ccc(C(F)(F)F)cc1[N+](=O)[O-])c1cccc(Cl)c1 and write its reported normalized growth.
0.944

Read the entry Cc1ccc(Sc2c(Sc3ccc(C)cc3)c(=O)c2=O)cc1 and write its reported normalized growth.
0.969

Read the entry O=c1c(Sc2ccc(Cl)cc2)c(Sc2ccc(Cl)cc2)c1=O and write its reported normalized growth.
0.979

Read the entry Cc1ccc(OCC2SCCN2C(=O)c2ccc(C(F)(F)F)cc2)c([N+](=O)[O-])c1 (centres undefined) and write its reported normalized growth.
1.01

Read the entry Cc1nn(Cc2cccc(C(=O)Nc3ccc(Cl)cc3)c2)c(C)c1Br and write its reported normalized growth.
0.977

Read the entry O=C1C(=O)N(CN2CCc3c([nH]c4ccccc34)C2C(F)(F)F)c2ccc(F)cc21 (centres undefined) and write its reported normalized growth.
0.981

Read the entry O=S(=O)(Nc1cccc2nsnc12)c1cc(Cl)sc1Cl and write its reported normalized growth.
0.958

###

protocol-text: chemical genetic growth profiling, strain panel (AID 1159580);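 note: tested at 20 µM; growth read once vehicle control cultures reached saturation at 30 °C; 1 = growth at the plate median or of vehicle wells; lower values mean less growth of the strain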
experimental-setup: S. cerevisiae deletion strains, growth OD, locus YDR318W, strain mcm21
The campaign covered roughly 5,500 compounds. About 2,000 (36%) were called active. Another 18% or so got no clear call; they are omitted. Cut-off read from the data, not from the text of the source: active = normalized growth mostly below about 0.91 (no sharp cut-off); inconclusive = no clear call, values can overlap the other calls; inactive = mostly above about 0.92. Some of the results follow.
Allowed answers: class 1 (active), class 0 (inactive)

Recorded results for 3 compounds are shown here.
- CCC(=O)O[C@H]1CCC2C3CCC4=CC(=O)CC[C@]4(C)C3CC[C@@]21C (stereo partly specified): class 1
- CC1=C(CC(=O)O)c2cc(F)ccc2/C1=C\c1ccc(S(C)=O)cc1 (stereo unspecified): class 0
- CC[C@H](/C=C/C(C)C1CCC2C3CCC4=CC(=O)CC[C@]4(C)C3CC[C@]12C)C(C)C (stereo partly specified): class 0

Please indicate how the test categorized CC(C)OC(=O)C(C)(C)Oc1ccc(C(=O)c2ccc(Cl)cc2)cc1 .
class 0

Please indicate how the test categorized CC(Oc1ccccc1)C(=O)N[C@@H]1C(=O)N2[C@@H]1SC(C)(C)[C@@H]2C(=O)O (stereo partly specified) .
class 0

Please indicate how the test categorized CC(C(=O)O)c1cccc(Oc2ccccc2)c1 (stereo unspecified) .
class 0

Please indicate how the test categorized COc1cc2c(cc1OC)[C@@H]1C(=O)c3ccc4c(c3O[C@@H]1CO2)C=CC(C)(C)O4 .
class 0

Please indicate how the test categorized COc1ccc2cc([C@H](C)CO)ccc2c1 .
class 0

Please indicate how the test categorized CCC(C)C(=O)O[C@H]1[C@H](O)C2C(CN3CC(C)CCC3[C@@]2(C)O)C2C[C@]34O[C@]5(O)C(OC(=O)C(C)(O)C(C)O)CC[C@@]3(C)C5C(OC(C)=O)[C@@H](OC(C)=O)C4[C@@]21O (stereo partly specified) .
class 0

Please indicate how the test categorized CO[C@H]1[C@H](O)[C@H](O[C@H]2CC[C@]3(C)C4CC[C@]5(C)C(C6=CC(=O)OC6)CC[C@]5(O)C4CC[C@@H]3C2)O[C@@H](C)[C@@H]1O (stereo partly specified) .
class 0

Please indicate how the test categorized COc1cc(NC(C)CCCN)c2ncccc2c1 (stereo unspecified) .
class 0

Please indicate how the test categorized COc1cc2c(cc1OC)[C@@H]1C(=O)c3ccc4oc(C(C)C)cc4c3O[C@@H]1CO2 .
class 0
